experimentalTarget: UniProt P49760
protocol: CLK2 kinase activity assay (Z-lyte FRET)
assayConditions: Z-lyte Ser/Thr 6 peptide, 60 μM ATP, 1 h at room temperature
valueType: EC50 (nM)
Numbers only here, please. The scale is nM.

Please give measured EC50 of the following entry: O=C(Nc1cnccc1NC(=O)C1CC1)c1n[nH]c2ccc(-c3cccnc3)cc12 [compound 63] 1

Please give measured EC50 of the following entry: c1cc2[nH]c(-c3n[nH]c4ccc(-c5cncc(CN6CCCCC6)c5)cc34)cc2c(N2CCCCC2)n1 [compound 469] 6

Please give measured EC50 of the following entry: CC(C)CC(=O)Nc1cncc(-c2cc3c(-c4cc5cccnc5[nH]4)n[nH]c3cn2)c1 [compound 423] 21

Please give measured EC50 of the following entry: Cc1n[nH]c2ccc(-c3cncc(N4CC(C)(N)C4)n3)cc12 [compound 36] 70

Please give measured EC50 of the following entry: O=C(Nc1cc2cc(-c3cncc(NCC4(F)CNC4)n3)ccc2cn1)C1CC1 [compound 602] 2

Please give measured EC50 of the following entry: c1ncc(-c2ccc3[nH]nc(-c4cc5c(-c6ccoc6)nccc5[nH]4)c3c2)cn1 [compound 505] 4

Please give measured EC50 of the following entry: c1cc(-c2cncc3[nH]c(-c4n[nH]c5ccc(-c6cncc(CNCC7CCCC7)c6)cc45)nc23)cs1 [compound 250] 4

Please give measured EC50 of the following entry: Cc1ccc(-c2nccc3[nH]c(-c4n[nH]c5cnc(-c6cncc(N)c6)cc45)nc23)s1 [compound 273] 4

====

experimentalTarget: CLK3 kinase (Homo sapiens)
Sequence (P49761 whole entry): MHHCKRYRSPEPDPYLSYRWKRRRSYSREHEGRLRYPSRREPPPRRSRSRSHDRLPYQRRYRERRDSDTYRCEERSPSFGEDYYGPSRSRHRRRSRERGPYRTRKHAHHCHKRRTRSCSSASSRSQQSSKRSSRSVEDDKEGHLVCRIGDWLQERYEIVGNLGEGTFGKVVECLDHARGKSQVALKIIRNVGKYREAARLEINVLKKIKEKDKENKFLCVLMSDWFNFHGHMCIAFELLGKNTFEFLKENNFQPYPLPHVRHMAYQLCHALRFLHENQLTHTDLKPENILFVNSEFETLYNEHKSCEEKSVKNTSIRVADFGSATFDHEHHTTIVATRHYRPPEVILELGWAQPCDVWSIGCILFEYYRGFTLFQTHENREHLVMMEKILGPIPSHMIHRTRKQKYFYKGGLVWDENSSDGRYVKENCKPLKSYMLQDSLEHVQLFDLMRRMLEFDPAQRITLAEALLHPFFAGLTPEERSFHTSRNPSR
protocol: CLK3 kinase activity assay (Z-lyte FRET)
assayConditions: Z-lyte Ser/Thr 18 peptide, 156 μM ATP, 1 h at room temperature
Please provide measured EC50 for the entries that follow.
Numbers only here, please. The scale is nM.

Please give measured EC50 of the following entry: `O=C(Nc1cc2cc(-c3cncc(NC4CCNCC4)n3)ncc2cn1)C1CCOCC1` 133

Please give measured EC50 of the following entry: `O=C(CC1CCNCC1)Nc1cncc(-c2ccc3[nH]nc(-c4cc5c(-c6ccoc6)ccnc5[nH]4)c3n2)c1` 418

Please give measured EC50 of the following entry: `CCC(=O)Nc1cncc(-c2ccc3[nH]nc(-c4nc5c(N6CCCCC6)ccnc5[nH]4)c3n2)c1` 1290

Please give measured EC50 of the following entry: `CC(C)CC(=O)Nc1cncc(-c2cc3c(-c4cc5c(-c6cc(F)cc(CNS(C)(=O)=O)c6)cncc5[nH]4)n[nH]c3cn2)c1` 198

Please give measured EC50 of the following entry: `CN1CCN(c2cc(Nc3ncc4c(-c5ccc6ncccc6c5)c[nH]c4n3)ccn2)CC1` 10

Please give measured EC50 of the following entry: `FC1(F)CCN(Cc2cncc(-c3cnc4[nH]nc(-c5cc6c(-c7ccoc7)cccc6[nH]5)c4c3)c2)C1` 104

Please give measured EC50 of the following entry: `O=C(Nc1cncc(-c2ccc3[nH]nc(-c4nc5c(-c6ccccc6F)ccnc5[nH]4)c3n2)c1)C(F)(F)F` 149

Please give measured EC50 of the following entry: `CS(=O)(=O)NCc1cc(F)cc(-c2nccc3[nH]c(-c4n[nH]c5cnc(-c6cncc(CNCC7CCCC7)c6)cc45)cc23)c1` 471

====

System: primary human mesenchymal stem cells (hMSCs)
protocol: Chondrogenesis screening using primary human mesenchymal stem cells
Assay type: cell-based
assayConditions: Homo sapiens, Mesenchymal stem cells, hMSC chondrogenesis; concentration required to induce 50% levels of chondrogenesis with TGF-β3 as positive control; read-out: Conc (nM) of 50% TGF-β3 activity
Please provide measured EC50 for the entries that follow.
Numbers only here, please. The scale is nM.

Please give measured EC50 of the following entry: `CC(C)Nc1cncc(-c2cnc3[nH]nc(-c4nc5c(-c6cc(F)cc(NCCN(C)C)c6)nccc5[nH]4)c3c2)c1` 30

Please give measured EC50 of the following entry: `Cc1ccncc1-c1cc2c(-c3cc4cnccc4[nH]3)n[nH]c2cn1` 10

Please give measured EC50 of the following entry: Cc1n[nH]c2ccc(-c3cncc(OC4CCNC[C@@H]4F)n3)cc12 (some centres unmarked) 100

Please give measured EC50 of the following entry: `FC1(F)CCN(Cc2cncc(-c3ccc4[nH]nc(-c5cc6c(-c7ccccn7)cccc6[nH]5)c4n3)c2)C1` 10

Please give measured EC50 of the following entry: `CC(C)Nc1cncc(-c2ccc3[nH]nc(-c4nc5c(-c6ccoc6)nccc5[nH]4)c3c2)c1` 30

====

Test system: primary human mesenchymal stem cells (hMSCs)
protocol: Chondrogenesis screening using primary human mesenchymal stem cells
Assay type: cell-based
assayConditions: Homo sapiens, Mesenchymal stem cells, hMSC chondrogenesis; concentration required to induce 50% levels of chondrogenesis with TGF-β3 as positive control; read-out: Conc (nM) of 50% TGF-β3 activity
valueType: EC50 (nM)
Numbers only here, please. The scale is nM.

Please give measured EC50 of the following entry: `O=C(Nc1cncc(-c2cnc3[nH]nc(-c4nc5c(-c6ccoc6)cncc5[nH]4)c3c2)c1)c1ccccc1` 100

Please give measured EC50 of the following entry: `CC(C)Nc1cncc(-c2ccc3[nH]nc(-c4nc5c(-c6ccoc6)ccnc5[nH]4)c3n2)c1` 100

Please give measured EC50 of the following entry: `CC(C)Nc1cncc(-c2ccc3[nH]nc(-c4cc5c(-c6cccnc6)cccc5[nH]4)c3c2)c1` 10

Please give measured EC50 of the following entry: `CN1CCN(c2ccc(NC(=O)c3n[nH]c4ccc(-c5cncc(CN6CCC(F)(F)C6)c5)cc34)cn2)CC1` 30

Please give measured EC50 of the following entry: `Nc1cncc(-c2ccc3[nH]nc(-c4nc5c(-c6ccccc6F)ccnc5[nH]4)c3c2)c1` 30

Please give measured EC50 of the following entry: `O=C(Nc1cncc(-c2ccc3[nH]nc(-c4nc5c(N6CCCCC6)cncc5[nH]4)c3c2)c1)C1CCC1` 30

Please give measured EC50 of the following entry: `CN1CCN(c2nccc3[nH]c(-c4n[nH]c5ccc(-c6cncc(CN7CCCCC7)c6)nc45)cc23)CC1` 10

Please give measured EC50 of the following entry: `CC(C)Oc1cncc(C(=O)Nc2c[nH]nc2C(=O)Nc2ccc(OC3CCN(C)CC3)nc2)c1` 2700

====

experimentalTarget: CLK2 kinase (Homo sapiens, UniProt P49760)
Sequence (P49760 whole entry): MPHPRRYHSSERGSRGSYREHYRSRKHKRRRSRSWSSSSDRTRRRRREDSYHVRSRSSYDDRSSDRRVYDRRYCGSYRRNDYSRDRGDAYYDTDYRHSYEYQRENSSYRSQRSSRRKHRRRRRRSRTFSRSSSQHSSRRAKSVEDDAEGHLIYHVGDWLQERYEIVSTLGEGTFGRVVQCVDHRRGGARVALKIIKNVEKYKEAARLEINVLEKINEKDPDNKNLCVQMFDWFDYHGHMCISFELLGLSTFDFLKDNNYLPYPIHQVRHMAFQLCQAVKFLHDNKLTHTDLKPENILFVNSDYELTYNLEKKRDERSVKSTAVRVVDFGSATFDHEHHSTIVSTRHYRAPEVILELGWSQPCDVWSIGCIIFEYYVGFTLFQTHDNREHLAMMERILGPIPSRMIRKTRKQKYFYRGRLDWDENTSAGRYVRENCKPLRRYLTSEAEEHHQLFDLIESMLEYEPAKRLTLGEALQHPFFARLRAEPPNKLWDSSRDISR
protocol: CLK2 kinase activity assay (Z-lyte FRET);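 also: FRET read-out as coumarin to fluorescein emission ratio, unphosphorylated peptide as 0% and phosphorylated peptide as 100% controls, duplicate reactions, non-linear regression fit of dose-response curves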
assayConditions: Z-lyte Ser/Thr 6 peptide, 60 μM ATP, 1 h at room temperature
valueType: EC50 (nM)
Numbers only here, please. The scale is nM.

Please give measured EC50 of the following entry: CCNCc1cncc(-c2cc3c(-c4cc5c(-c6ccccc6F)ccnc5[nH]4)n[nH]c3cn2)c1 [compound 335] 19

Please give measured EC50 of the following entry: O=C(CC1CCNCC1)Nc1cncc(-c2ccc3[nH]nc(-c4cc5c(-c6ccccn6)cccc5[nH]4)c3n2)c1 [compound 408] 2

Please give measured EC50 of the following entry: COc1cncc(-c2cc3c(-c4nc5c(-c6cccc(F)c6)cncc5[nH]4)n[nH]c3cn2)c1 [compound 147] 9

Please give measured EC50 of the following entry: CC(C)C(=O)Nc1cncc(-c2cc3c(-c4cc5c(-c6cccnc6)cccc5[nH]4)n[nH]c3cn2)c1 [compound 350] 11

Please give measured EC50 of the following entry: Oc1cncc(-c2ccc3[nH]nc(-c4nc5c(-c6cccc(F)c6)ccnc5[nH]4)c3n2)c1 [compound 146] 5

Please give measured EC50 of the following entry: CC(C)C(=O)Nc1cncc(-c2ccc3[nH]nc(-c4nc5c(-c6cccnc6)ccnc5[nH]4)c3n2)c1 [compound 187] 2

Please give measured EC50 of the following entry: CCNCc1cncc(-c2cnc3[nH]nc(-c4nc5c(-c6cccc(F)c6)cccc5[nH]4)c3c2)c1 [compound 134] 6

Please give measured EC50 of the following entry: CN1CCN(c2ccc(NC(=O)c3n[nH]c4ccc(-c5cncc(CN6CCC(F)(F)C6)c5)cc34)cn2)CC1 [compound 73] 1

Please give measured EC50 of the following entry: c1cncc(-c2ccnc3[nH]c(-c4n[nH]c5cnc(-c6cncnc6)cc45)cc23)c1 [compound 374] 19

Please give measured EC50 of the following entry: Nc1cncc(-c2cnc3[nH]nc(-c4cc5c(-c6ccncc6)ccnc5[nH]4)c3c2)c1 [compound 380] 5

Please give measured EC50 of the following entry: O=C(Cc1ccccc1)Nc1cncc(-c2ccc3[nH]nc(-c4nc5c(-c6ccncc6)ccnc5[nH]4)c3n2)c1 [compound 626] 7

====

experimentalTarget: CLK3 kinase (Homo sapiens)
protocol: CLK3 kinase activity assay (Z-lyte FRET);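 also: kinase activity read as coumarin/fluorescein emission ratio by FRET, unphosphorylated peptide as 0% and phosphorylated peptide as 100% control, values from non-linear regression of dose-response curves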
assayConditions: Z-lyte Ser/Thr 18 peptide, 156 μM ATP, 1 h at room temperature
valueType: EC50 (µM)
Numbers only here, please. The scale is µM.

Please give measured EC50 of the following entry: `Nc1cncc(-c2cc3c(-c4cc5c(-c6ccccc6F)cncc5[nH]4)n[nH]c3cn2)c1` 0.205

Please give measured EC50 of the following entry: `CC(C)CC(=O)Nc1cncc(-c2ccc3[nH]nc(-c4nc5c(N6CCN(C)CC6)cccc5[nH]4)c3c2)c1` 0.04

Please give measured EC50 of the following entry: `Cn1cc(-c2ccc3cnc(NC(=O)c4ccc5c(c4)CNCC5)cc3c2)cn1` 0.039

Entry source: patent US20230000842A1
